Sourced from ChEMBL document CHEMBL3351353

TEST: Thermodynamic solubility of the compound in phosphate buffer at pH 7.2 to 7.4 at 1 mg after 48 hrs by shake flask method
Assay type: physicochemical
ASSAY_SETUP: read-out: Therm_solubility
MEASURE: solubility thermodynamic at 48 h

1) CCCOc1ccc(C[C@@H](Cc2ccccc2)C(=O)O)cc1CNC(=O)c1ccc(N2C3CC4CC(C3)CC2C4)cc1 ... < 10 µg/mL
2) CCCOc1ccc(C[C@@H](Cc2ccccc2)C(=O)O)cc1CNC(=O)c1ccc(N2CCCCC2)cc1 ... 10 µg/mL
3) CCCOc1ccc(C[C@@H](Cc2ccccc2)C(=O)O)cc1CNC(=O)c1ccc(N2CCCC(C)(C)C2)cc1 ... < 10 µg/mL
4) CCCOc1ccc(C[C@@H](Cc2ccccc2)C(=O)O)cc1CNC(=O)c1ccc(N2C3CCCC2CC3)cc1 ... 10 µg/mL
5) CCCOc1ccc(C[C@@H](Cc2ccccc2)C(=O)O)cc1CNC(=O)c1ccc(N2CCC(C)(C)CC2)cc1 ... < 10 µg/mL
6) CCCOc1ccc(C[C@@H](Cc2ccccc2)C(=O)O)cc1CNC(=O)c1ccc(N2CC(C)(C)CC(C)(C)C2)cc1 ... < 10 µg/mL
